Target: IC-21 macrophage elastase
Experiment: Elastase activity in IC-21 macrophages
Format: biochemical, mouse
Conditions: 120 min
Reported IC50 by item:

structure: CC(=O)Oc1c2cc(S(=O)(=O)[O-])cc1Cc1cc(S(=O)(=O)[O-])cc(c1OC(C)=O)Cc1cc(S(=O)(=O)[O-])cc(c1OC(C)=O)Cc1cc(S(=O)(=O)[O-])cc(c1OC(C)=O)Cc1cc(S(=O)(=O)[O-])cc(c1OC(C)=O)Cc1cc(S(=O)(=O)[O-])cc(c1OC(C)=O)Cc1cc(S(=O)(=O)[O-])cc(c1OC(C)=O)Cc1cc(S(=O)(=O)[O-])cc(c1OC(C)=O)C2.[Na+].[Na+].[Na+].[Na+].[Na+].[Na+].[Na+].[Na+]
IC50 / µM: 111

structure: O=S(=O)(O)c1cc2c(O)c(c1)Cc1cc(S(=O)(=O)O)cc(c1O)Cc1cc(S(=O)(=O)O)cc(c1O)Cc1cc(S(=O)(=O)O)cc(c1O)C2
IC50 / µM: 25

structure: COc1c2cc(S(=O)(=O)O)cc1Cc1cc(S(=O)(=O)O)cc(c1OC)Cc1cc(S(=O)(=O)O)cc(c1OC)Cc1cc(S(=O)(=O)O)cc(c1OC)Cc1cc(S(=O)(=O)O)cc(c1OC)Cc1cc(S(=O)(=O)O)cc(c1OC)Cc1cc(S(=O)(=O)O)cc(c1OC)Cc1cc(S(=O)(=O)O)cc(c1OC)C2
IC50 / µM: 56

###

Reported pIC50 by item:
Biological target: J774-A1 macrophage elastase
Assay: Elastase activity in J774-A1 macrophages
Assay type: biochemical, mouse
Settings: 60 min
pIC50: −log10 of the molar value.
metricName: pIC50

structure: O=S(=O)(O)c1cc2c(O)c(c1)Cc1cc(S(=O)(=O)O)cc(c1O)Cc1cc(S(=O)(=O)O)cc(c1O)Cc1cc(S(=O)(=O)O)cc(c1O)Cc1cc(S(=O)(=O)O)cc(c1O)Cc1cc(S(=O)(=O)O)cc(c1O)C2
assayedSystem: J774-A1 macrophage elastase
quantitativeReadout: 5.10
//
structure: COc1c2cc(S(=O)(=O)O)cc1Cc1cc(S(=O)(=O)O)cc(c1OC)Cc1cc(S(=O)(=O)O)cc(c1OC)Cc1cc(S(=O)(=O)O)cc(c1OC)Cc1cc(S(=O)(=O)O)cc(c1OC)Cc1cc(S(=O)(=O)O)cc(c1OC)Cc1cc(S(=O)(=O)O)cc(c1OC)Cc1cc(S(=O)(=O)O)cc(c1OC)C2
assayedSystem: J774-A1 macrophage elastase
quantitativeReadout: 6.52

###

Molecular target: J774-A1 macrophage elastase
Test: Elastase activity in J774-A1 macrophages
Format: biochemical, mouse
Settings: 120 min
pIC50: −log10 of the molar value.
metricName: pIC50

structure: O=S(=O)(O)c1cc2c(O)c(c1)Cc1cc(S(=O)(=O)O)cc(c1O)Cc1cc(S(=O)(=O)O)cc(c1O)Cc1cc(S(=O)(=O)O)cc(c1O)Cc1cc(S(=O)(=O)O)cc(c1O)Cc1cc(S(=O)(=O)O)cc(c1O)Cc1cc(S(=O)(=O)O)cc(c1O)Cc1cc(S(=O)(=O)O)cc(c1O)C2
quantitativeReadout: 3.44

structure: CC(=O)Oc1c2cc(S(=O)(=O)[O-])cc1Cc1cc(S(=O)(=O)[O-])cc(c1OC(C)=O)Cc1cc(S(=O)(=O)[O-])cc(c1OC(C)=O)Cc1cc(S(=O)(=O)[O-])cc(c1OC(C)=O)Cc1cc(S(=O)(=O)[O-])cc(c1OC(C)=O)Cc1cc(S(=O)(=O)[O-])cc(c1OC(C)=O)Cc1cc(S(=O)(=O)[O-])cc(c1OC(C)=O)Cc1cc(S(=O)(=O)[O-])cc(c1OC(C)=O)C2.[Na+].[Na+].[Na+].[Na+].[Na+].[Na+].[Na+].[Na+]
quantitativeReadout: 3.46

structure: COc1c2cc(S(=O)(=O)O)cc1Cc1cc(S(=O)(=O)O)cc(c1OC)Cc1cc(S(=O)(=O)O)cc(c1OC)Cc1cc(S(=O)(=O)O)cc(c1OC)Cc1cc(S(=O)(=O)O)cc(c1OC)Cc1cc(S(=O)(=O)O)cc(c1OC)Cc1cc(S(=O)(=O)O)cc(c1OC)Cc1cc(S(=O)(=O)O)cc(c1OC)C2
quantitativeReadout: 3.57

structure: O=S(=O)(O)c1cc2c(O)c(c1)Cc1cc(S(=O)(=O)O)cc(c1O)Cc1cc(S(=O)(=O)O)cc(c1O)Cc1cc(S(=O)(=O)O)cc(c1O)C2
quantitativeReadout: 3.55

structure: O=S(=O)(O)c1cc2c(O)c(c1)Cc1cc(S(=O)(=O)O)cc(c1O)Cc1cc(S(=O)(=O)O)cc(c1O)Cc1cc(S(=O)(=O)O)cc(c1O)Cc1cc(S(=O)(=O)O)cc(c1O)Cc1cc(S(=O)(=O)O)cc(c1O)C2
quantitativeReadout: 3.62

###

Test system: CF1 male mice, LPS Salmonella abortus equi induced death
Test: Protection against septic shock (LPS induced endotoxic shock)
Assay type: in vivo
Conditions: 16 mg/kg
Reported protection from LPS induced death by item:

molecule: COc1c2cc(S(=O)(=O)[O-])cc1Cc1cc(S(=O)(=O)[O-])cc(c1OC)Cc1cc(S(=O)(=O)[O-])cc(c1OC)Cc1cc(S(=O)(=O)[O-])cc(c1OC)Cc1cc(S(=O)(=O)[O-])cc(c1OC)Cc1cc(S(=O)(=O)[O-])cc(c1OC)C2.[Na+].[Na+].[Na+].[Na+].[Na+].[Na+] [Compound 6]
readoutUnit: %
protection from LPS induced death: 100

molecule: COc1c2cc(S(=O)(=O)[O-])cc1Cc1cc(S(=O)(=O)[O-])cc(c1OC)Cc1cc(S(=O)(=O)[O-])cc(c1OC)Cc1cc(S(=O)(=O)[O-])cc(c1OC)C2.[Na+].[Na+].[Na+].[Na+] [Compound 5]
readoutUnit: %
protection from LPS induced death: 67

molecule: O=S(=O)(O)c1cc2c(O)c(c1)Cc1cc(S(=O)(=O)O)cc(c1O)Cc1cc(S(=O)(=O)O)cc(c1O)Cc1cc(S(=O)(=O)O)cc(c1O)Cc1cc(S(=O)(=O)O)cc(c1O)Cc1cc(S(=O)(=O)O)cc(c1O)Cc1cc(S(=O)(=O)O)cc(c1O)Cc1cc(S(=O)(=O)O)cc(c1O)C2 [Compound 1]
readoutUnit: %
protection from LPS induced death: 83

###

Reported protection from LPS induced death by item:
Test system: CF1 male mice, LPS Salmonella abortus equi induced death
Test: Protection against septic shock (LPS induced endotoxic shock)
Type: in vivo
Conditions: 16 mg/kg

structure: CC(=O)Oc1c2cc(S(=O)(=O)[O-])cc1Cc1cc(S(=O)(=O)[O-])cc(c1OC(C)=O)Cc1cc(S(=O)(=O)[O-])cc(c1OC(C)=O)Cc1cc(S(=O)(=O)[O-])cc(c1OC(C)=O)Cc1cc(S(=O)(=O)[O-])cc(c1OC(C)=O)Cc1cc(S(=O)(=O)[O-])cc(c1OC(C)=O)Cc1cc(S(=O)(=O)[O-])cc(c1OC(C)=O)Cc1cc(S(=O)(=O)[O-])cc(c1OC(C)=O)C2.[Na+].[Na+].[Na+].[Na+].[Na+].[Na+].[Na+].[Na+]
assayedSystem: CF1 male mice, LPS Salmonella abortus equi induced death
protection from LPS induced death / %: 83
--
structure: O=S(=O)(O)c1cc2c(O)c(c1)Cc1cc(S(=O)(=O)O)cc(c1O)Cc1cc(S(=O)(=O)O)cc(c1O)Cc1cc(S(=O)(=O)O)cc(c1O)Cc1cc(S(=O)(=O)O)cc(c1O)Cc1cc(S(=O)(=O)O)cc(c1O)C2
assayedSystem: CF1 male mice, LPS Salmonella abortus equi induced death
protection from LPS induced death / %: 83
--
structure: COc1c2cc(S(=O)(=O)O)cc1Cc1cc(S(=O)(=O)O)cc(c1OC)Cc1cc(S(=O)(=O)O)cc(c1OC)Cc1cc(S(=O)(=O)O)cc(c1OC)Cc1cc(S(=O)(=O)O)cc(c1OC)Cc1cc(S(=O)(=O)O)cc(c1OC)Cc1cc(S(=O)(=O)O)cc(c1OC)Cc1cc(S(=O)(=O)O)cc(c1OC)C2
assayedSystem: CF1 male mice, LPS Salmonella abortus equi induced death
protection from LPS induced death / %: 83

###

Target: J774-A1 prostaglandin cyclooxygenase
Assay: Prostaglandin cyclooxygenase activity in J774-A1 macrophages
Format: cell-based, mouse
Conditions: 60 min; read-out: IC50 Cyclo-oxygenase J774-A1
pIC50: −log10 of the molar value.
Reported pIC50 by item:
metricName: pIC50

compound: O=S(=O)(O)c1cc2c(O)c(c1)Cc1cc(S(=O)(=O)O)cc(c1O)Cc1cc(S(=O)(=O)O)cc(c1O)Cc1cc(S(=O)(=O)O)cc(c1O)Cc1cc(S(=O)(=O)O)cc(c1O)Cc1cc(S(=O)(=O)O)cc(c1O)C2 [Compound 2]
quantitativeReadout: 4.12

compound: CC(=O)Oc1c2cc(S(=O)(=O)[O-])cc1Cc1cc(S(=O)(=O)[O-])cc(c1OC(C)=O)Cc1cc(S(=O)(=O)[O-])cc(c1OC(C)=O)Cc1cc(S(=O)(=O)[O-])cc(c1OC(C)=O)Cc1cc(S(=O)(=O)[O-])cc(c1OC(C)=O)Cc1cc(S(=O)(=O)[O-])cc(c1OC(C)=O)Cc1cc(S(=O)(=O)[O-])cc(c1OC(C)=O)Cc1cc(S(=O)(=O)[O-])cc(c1OC(C)=O)C2.[Na+].[Na+].[Na+].[Na+].[Na+].[Na+].[Na+].[Na+] [Compound 8]
quantitativeReadout: 4.48

compound: COc1c2cc(S(=O)(=O)[O-])cc1Cc1cc(S(=O)(=O)[O-])cc(c1OC)Cc1cc(S(=O)(=O)[O-])cc(c1OC)Cc1cc(S(=O)(=O)[O-])cc(c1OC)C2.[Na+].[Na+].[Na+].[Na+] [Compound 5]
quantitativeReadout: 4.19

compound: COc1c2cc(S(=O)(=O)O)cc1Cc1cc(S(=O)(=O)O)cc(c1OC)Cc1cc(S(=O)(=O)O)cc(c1OC)Cc1cc(S(=O)(=O)O)cc(c1OC)Cc1cc(S(=O)(=O)O)cc(c1OC)Cc1cc(S(=O)(=O)O)cc(c1OC)Cc1cc(S(=O)(=O)O)cc(c1OC)Cc1cc(S(=O)(=O)O)cc(c1OC)C2 [Compound 4]
quantitativeReadout: 4.23

compound: O=S(=O)(O)c1cc2c(O)c(c1)Cc1cc(S(=O)(=O)O)cc(c1O)Cc1cc(S(=O)(=O)O)cc(c1O)Cc1cc(S(=O)(=O)O)cc(c1O)C2 [Compound 3]
quantitativeReadout: 4.56

compound: O=S(=O)(O)c1cc2c(O)c(c1)Cc1cc(S(=O)(=O)O)cc(c1O)Cc1cc(S(=O)(=O)O)cc(c1O)Cc1cc(S(=O)(=O)O)cc(c1O)Cc1cc(S(=O)(=O)O)cc(c1O)Cc1cc(S(=O)(=O)O)cc(c1O)Cc1cc(S(=O)(=O)O)cc(c1O)Cc1cc(S(=O)(=O)O)cc(c1O)C2 [Compound 1]
quantitativeReadout: 4.69
